# credit: paper PMC9572860

Test: In vitro cytotoxicity with L-6 cells
Format: cell-based, rat
Conditions: rat
Sorting guide: entries reporting IC50 at 72 h beneath 9 µM go in the TRUE pile, the rest go in the FALSE pile.

Exercise: Hello, I'm reviewing records and need to know if IC50 at 72 h of Cc1ccc(C(NCCN2CC3C(c4ccccc4)CC(N4CCCCC4)(CC3c3ccccc3)C2)c2nnnn2C(C)(C)C)cc1 (stereo in doubt) [Compound 13B] is below 9 µM. Could you check?
Solution: TRUE

Exercise: How about this molecule: Cc1ccc(S(=O)(=O)NCCN2CCC3(N4CCCC4)C[C@H](c4ccccc4)C2[C@@H](c2ccccc2)C3)cc1 (racemic)
Solution: TRUE

Exercise: How about this molecule: CC(C)(C)C(NCCN1CC2[C@H](c3ccccc3)CC(N3CCCCC3)(C[C@H]2c2ccccc2)C1)c1nnnn1C(C)(C)C (mixture of isomers) [Compound 11A]
Solution: FALSE

Exercise: How about this molecule: Cc1ccc(S(=O)(=O)NCCN2CCC3(N4CCCCC4)C[C@H](c4ccccc4)C2[C@@H](c2ccccc2)C3)cc1 (racemic)
Solution: FALSE

Exercise: How about this molecule: CC(C)(C)n1nnnc1[C@H](NCCN1CC2C(c3ccccc3)CC(N3CCCCC3)(CC2c2ccccc2)C1)c1ccccc1 (mixture of isomers) [Compound 12A]
Solution: TRUE
